- tested_on: PTP1B (Homo sapiens, UniProt P18031)
- Sequence (P18031 1-435): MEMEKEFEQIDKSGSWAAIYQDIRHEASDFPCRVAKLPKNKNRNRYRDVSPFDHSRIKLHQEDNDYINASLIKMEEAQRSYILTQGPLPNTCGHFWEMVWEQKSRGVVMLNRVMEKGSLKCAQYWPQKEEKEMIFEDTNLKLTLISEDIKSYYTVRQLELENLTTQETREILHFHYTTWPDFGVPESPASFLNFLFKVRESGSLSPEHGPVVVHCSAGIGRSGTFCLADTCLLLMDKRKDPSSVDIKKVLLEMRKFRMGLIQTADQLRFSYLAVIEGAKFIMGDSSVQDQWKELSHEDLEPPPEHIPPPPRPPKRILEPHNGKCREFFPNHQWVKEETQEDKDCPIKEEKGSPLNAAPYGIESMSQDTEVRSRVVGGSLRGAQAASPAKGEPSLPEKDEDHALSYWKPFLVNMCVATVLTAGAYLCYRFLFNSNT
- assay_overview: Inhibitory activity analysis with recombinant PTP1B phosphatase
pIC50: −log10 of the molar value. Where a SMILES comes first, the peptide text is derived from it.
assay_metric: pIC50

[[record]]
compound = "N[C@@H](CC(=O)O)C(=O)N[C@@H](Cc1ccccc1)C(=O)O [Asp-Phe] (H-Asp-Phe-OH)"
tested_on = "PTP1B (Homo sapiens, UniProt P18031)"
assay_metric = "pIC50"
test_result = 4.28

[[record]]
compound = "N[C@@H](Cc1ccccc1)C(=O)N[C@@H](Cc1ccccc1)C(=O)N[C@@H](CC(=O)O)C(=O)O [Phe-Phe-Asp] (H-Phe-Phe-Asp-OH)"
tested_on = "PTP1B (Homo sapiens, UniProt P18031)"
assay_metric = "pIC50"
test_result = 3.98


A. N[C@@H](Cc1ccccc1)C(=O)N[C@@H](CC(=O)O)C(=O)O [Phe-Asp] (H-Phe-Asp-OH)
B. N[C@@H](Cc1ccccc1)C(=O)N[C@@H](CC(=O)O)C(=O)N[C@@H](Cc1ccccc1)C(=O)O [Phe-Asp-Phe] (H-Phe-Asp-Phe-OH)
Lower value for measured pIC50? Options: A , B Your answer should be the label attached to the chosen record. B
(B: 3.59, A: 4.28)
